Assay: Clinical pharmacokinetics, plasma LC-MS/MS after single oral dose of AP capsules
Assay type: in vivo, human (healthy volunteers)
Conditions: human, plasma, oral, 2000 mg, S2; 2.50 h; 2000 mg AP capsules; read-out: Plasma concentration
Quick reference for concentration at 2.5 h among some compounds
MEASUREMENT_NAME: concentration at 2.5 h (ng/mL)

> print(dat)
                                   compound        measurement.name  number
1  C=C1CC[C@@H]2[C@](C)(CO[C@@H]3O[C@H](CO)[C@@H](O)[C@H](O)[C@H]3O)CCC[C@@]2(C)[C@@H]1CCC1=CCOC1=O [neoandrographolide]  concentration at 2.5 h    21.7
2  C=C1CC[C@@H]2[C@](C)(CO)[C@H](O)CC[C@@]2(C)[C@@H]1C/C=C1/C(=O)OC[C@H]1O [andrographolide]  concentration at 2.5 h    3.13
3  C=C1CC[C@@H]2[C@](C)(CO)[C@H](O)CC[C@@]2(C)[C@@H]1CCC1=CCOC1=O [14-deoxyandrographolide]  concentration at 2.5 h    2.73

* * *

Assay: Clinical pharmacokinetics, plasma LC-MS/MS after single oral dose of AP capsules
Assay type: in vivo, human (healthy volunteers)
Details: human, plasma, oral, 2000 mg, S1; 12.00 h; 2000 mg AP capsules; read-out: Plasma concentration
concentration at 12 h listing for selected compounds.
MEASUREMENT_NAME: concentration at 12 h (ng/mL)

> print(dat)
                                   compound  number
1  C=C1CC[C@@H]2[C@](C)(CO[C@@H]3O[C@H](CO)[C@@H](O)[C@H](O)[C@H]3O)CCC[C@@]2(C)[C@@H]1CCC1=CCOC1=O [neoandrographolide]       0
2  C=C1CC[C@@H]2[C@](C)(CO)[C@H](O)CC[C@@]2(C)[C@@H]1C/C=C1/C(=O)OC[C@H]1O [andrographolide]       0
3  C=C1CC[C@@H]2[C@](C)(CO)[C@H](O)CC[C@@]2(C)[C@@H]1CCC1=CCOC1=O [14-deoxyandrographolide]       0

* * *

Test: Clinical pharmacokinetics, plasma LC-MS/MS after single oral dose of AP capsules
Type: in vivo, human (healthy volunteers)
Settings: human; plasma, 2000 mg AP capsules oral, fasting, n=5
MEASUREMENT_NAME: Tmax (h)

> print(dat)
                                   compound  number
1  C=C1CC[C@@H]2[C@](C)(CO)[C@H](O)CC[C@@]2(C)[C@@H]1C/C=C1/C(=O)OC[C@H]1O [andrographolide]     1.5

* * *

Experiment: Clinical pharmacokinetics, plasma LC-MS/MS after single oral dose of AP capsules
Format: in vivo, human (healthy volunteers)
Conditions: human, plasma, oral, 2000 mg, S2; 0.00 h; 2000 mg AP capsules; read-out: Plasma concentration
MEASUREMENT_NAME: concentration at 0 h (ng/mL)

> print(dat)
                                   compound  number
1  C=C1CC[C@@H]2[C@](C)(CO)[C@H](O)CC[C@@]2(C)[C@@H]1C/C=C1/C(=O)OC[C@H]1O [andrographolide]       0
2  C=C1CC[C@@H]2[C@](C)(CO[C@@H]3O[C@H](CO)[C@@H](O)[C@H](O)[C@H]3O)CCC[C@@]2(C)[C@@H]1CCC1=CCOC1=O [neoandrographolide]       0
3  C=C1CC[C@@H]2[C@](C)(CO)[C@H](O)CC[C@@]2(C)[C@@H]1CCC1=CCOC1=O [14-deoxyandrographolide]       0

* * *

Assay: Clinical pharmacokinetics, plasma LC-MS/MS after single oral dose of AP capsules
Type: in vivo, human (healthy volunteers)
Details: human, plasma, oral, 2000 mg, S1; 0.00 h; 2000 mg AP capsules; read-out: Plasma concentration
Each item that follows carries a reported concentration at 0 h.
MEASUREMENT_NAME: concentration at 0 h (ng/mL)

> print(dat)
                                   compound  number
1  C=C1CC[C@@H]2[C@](C)(CO)[C@H](O)CC[C@@]2(C)[C@@H]1C/C=C1/C(=O)OC[C@H]1O [andrographolide]       0
2  C=C1CC[C@@H]2[C@](C)(CO[C@@H]3O[C@H](CO)[C@@H](O)[C@H](O)[C@H]3O)CCC[C@@]2(C)[C@@H]1CCC1=CCOC1=O [neoandrographolide]       0
3  C=C1CC[C@@H]2[C@](C)(CO)[C@H](O)CC[C@@]2(C)[C@@H]1CCC1=CCOC1=O [14-deoxyandrographolide]       0

* * *

Here the recorded concentration at 1.5 h is given for each entry.
Test: Clinical pharmacokinetics, plasma LC-MS/MS after single oral dose of AP capsules
Format: in vivo, human (healthy volunteers)
Settings: human, plasma, oral, 2000 mg, S2; 1.50 h; 2000 mg AP capsules; read-out: Plasma concentration
MEASUREMENT_NAME: concentration at 1.5 h

> print(dat)
                                   compound        measurement.name      result
1  C=C1CC[C@@H]2[C@](C)(CO[C@@H]3O[C@H](CO)[C@@H](O)[C@H](O)[C@H]3O)CCC[C@@]2(C)[C@@H]1CCC1=CCOC1=O [neoandrographolide]  concentration at 1.5 h  43.7 ng/mL
2  C=C1CC[C@@H]2[C@](C)(CO)[C@H](O)CC[C@@]2(C)[C@@H]1CCC1=CCOC1=O [14-deoxyandrographolide]  concentration at 1.5 h  4.51 ng/mL
3  C=C1CC[C@@H]2[C@](C)(CO)[C@H](O)CC[C@@]2(C)[C@@H]1C/C=C1/C(=O)OC[C@H]1O [andrographolide]  concentration at 1.5 h  5.56 ng/mL

* * *

Test: Clinical pharmacokinetics, plasma LC-MS/MS after single oral dose of AP capsules
Assay type: in vivo, human (healthy volunteers)
Settings: human, plasma, oral, 2000 mg, S4; 12.00 h; 2000 mg AP capsules; read-out: Plasma concentration
MEASUREMENT_NAME: concentration at 12 h (ng/mL)

> print(dat)
                                   molecule  number
1  C=C1CC[C@@H]2[C@](C)(CO)[C@H](O)CC[C@@]2(C)[C@@H]1C/C=C1/C(=O)OC[C@H]1O [andrographolide]       0
2  C=C1CC[C@@H]2[C@](C)(CO)[C@H](O)CC[C@@]2(C)[C@@H]1CCC1=CCOC1=O [14-deoxyandrographolide]       0
3  C=C1CC[C@@H]2[C@](C)(CO[C@@H]3O[C@H](CO)[C@@H](O)[C@H](O)[C@H]3O)CCC[C@@]2(C)[C@@H]1CCC1=CCOC1=O [neoandrographolide]       0

* * *

concentration at 4 h by entry:
Assay: Clinical pharmacokinetics, plasma LC-MS/MS after single oral dose of AP capsules
Assay type: in vivo, human (healthy volunteers)
Details: human, plasma, oral, 2000 mg, mean n=5; 4.00 h; 2000 mg AP capsules; read-out: Mean concentration
MEASUREMENT_NAME: concentration at 4 h (ng/mL)

> print(dat)
                                   molecule      measurement.name  number
1  C=C1CC[C@@H]2[C@](C)(CO)[C@H](O)CC[C@@]2(C)[C@@H]1C/C=C1/C(=O)OC[C@H]1O [andrographolide]  concentration at 4 h    0.11
2  C=C1CC[C@@H]2[C@](C)(CO[C@@H]3O[C@H](CO)[C@@H](O)[C@H](O)[C@H]3O)CCC[C@@]2(C)[C@@H]1CCC1=CCOC1=O [neoandrographolide]  concentration at 4 h      12
3  C=C1CC[C@@H]2[C@](C)(CO)[C@H](O)CC[C@@]2(C)[C@@H]1CCC1=CCOC1=O [14-deoxyandrographolide]  concentration at 4 h    0.61

* * *

Assay: Clinical pharmacokinetics, plasma LC-MS/MS after single oral dose of AP capsules
Assay type: in vivo, human (healthy volunteers)
Conditions: human, plasma, oral, 2000 mg, S4; 10.00 h; 2000 mg AP capsules; read-out: Plasma concentration
Here the recorded concentration at 10 h is given for each entry.
MEASUREMENT_NAME: concentration at 10 h (ng/mL)

> print(dat)
                                   molecule  number
1  C=C1CC[C@@H]2[C@](C)(CO)[C@H](O)CC[C@@]2(C)[C@@H]1CCC1=CCOC1=O [14-deoxyandrographolide]       0
2  C=C1CC[C@@H]2[C@](C)(CO)[C@H](O)CC[C@@]2(C)[C@@H]1C/C=C1/C(=O)OC[C@H]1O [andrographolide]       0
3  C=C1CC[C@@H]2[C@](C)(CO[C@@H]3O[C@H](CO)[C@@H](O)[C@H](O)[C@H]3O)CCC[C@@]2(C)[C@@H]1CCC1=CCOC1=O [neoandrographolide]       0
